Source: patent US20240309103A1

- test_system: T1, mNPR1-mFc (mouse)
- T1 construct: also called mouse NPR1 extracellular domain expressed with a C-terminal mouse IgG2a
- T1 chain: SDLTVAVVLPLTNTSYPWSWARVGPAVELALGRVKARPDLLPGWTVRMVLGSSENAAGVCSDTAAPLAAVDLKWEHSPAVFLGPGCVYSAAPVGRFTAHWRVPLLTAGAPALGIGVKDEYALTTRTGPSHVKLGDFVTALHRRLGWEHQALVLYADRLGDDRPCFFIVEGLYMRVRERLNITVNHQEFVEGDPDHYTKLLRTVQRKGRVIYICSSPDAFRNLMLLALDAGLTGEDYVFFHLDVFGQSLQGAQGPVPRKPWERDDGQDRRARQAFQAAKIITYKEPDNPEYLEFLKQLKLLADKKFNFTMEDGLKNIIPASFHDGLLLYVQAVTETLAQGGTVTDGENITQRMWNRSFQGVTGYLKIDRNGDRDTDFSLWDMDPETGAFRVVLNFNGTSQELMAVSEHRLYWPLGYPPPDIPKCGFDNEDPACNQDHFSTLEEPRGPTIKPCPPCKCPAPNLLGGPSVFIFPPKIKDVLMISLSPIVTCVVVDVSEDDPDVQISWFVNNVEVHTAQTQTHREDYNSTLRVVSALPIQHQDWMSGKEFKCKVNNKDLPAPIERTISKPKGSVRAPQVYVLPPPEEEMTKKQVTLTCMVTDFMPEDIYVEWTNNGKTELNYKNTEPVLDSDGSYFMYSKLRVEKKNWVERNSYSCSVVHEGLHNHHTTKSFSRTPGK
- test_name: SPR Biacore, mAb captured by anti-human Fc, 37C
So I've got a bunch of binders here, and I need their 100 nM Ag Bound (RU) values.
Answers are plain numbers, in RU.

Some entries whose results are on file:
# binder, 100 nM Ag Bound (RU)
rows = [
    ("mAb25508 (antibody, human IgG4, V domains shown) VH: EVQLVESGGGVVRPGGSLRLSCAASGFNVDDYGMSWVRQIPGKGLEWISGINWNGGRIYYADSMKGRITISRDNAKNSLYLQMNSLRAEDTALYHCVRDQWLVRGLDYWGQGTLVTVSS VL: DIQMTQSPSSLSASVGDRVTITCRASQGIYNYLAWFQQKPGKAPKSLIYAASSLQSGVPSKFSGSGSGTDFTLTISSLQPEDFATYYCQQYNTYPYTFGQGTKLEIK", 0),
    ("mAb22033 (antibody, human IgG4, V domains shown) VH: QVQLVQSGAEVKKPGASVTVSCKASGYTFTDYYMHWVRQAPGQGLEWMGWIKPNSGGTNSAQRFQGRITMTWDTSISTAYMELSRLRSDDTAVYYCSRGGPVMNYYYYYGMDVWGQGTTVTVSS VL: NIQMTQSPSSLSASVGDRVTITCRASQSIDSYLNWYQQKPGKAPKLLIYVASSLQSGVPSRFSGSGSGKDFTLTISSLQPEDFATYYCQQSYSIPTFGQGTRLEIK", 1),
    ("mAb25497 (antibody, human IgG4, V domains shown) VH: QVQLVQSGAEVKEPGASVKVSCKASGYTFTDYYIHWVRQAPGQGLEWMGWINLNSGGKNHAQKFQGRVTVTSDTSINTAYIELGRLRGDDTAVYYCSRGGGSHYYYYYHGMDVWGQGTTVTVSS VL: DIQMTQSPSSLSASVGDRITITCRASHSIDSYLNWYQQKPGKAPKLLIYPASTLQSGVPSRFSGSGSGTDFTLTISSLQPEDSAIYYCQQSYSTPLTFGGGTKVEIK", 1),
    ("mAb22809 (antibody, human IgG4, V domains shown) VH: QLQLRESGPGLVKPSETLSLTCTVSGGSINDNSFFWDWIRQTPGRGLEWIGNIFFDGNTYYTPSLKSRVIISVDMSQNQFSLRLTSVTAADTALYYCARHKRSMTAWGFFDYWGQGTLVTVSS VL: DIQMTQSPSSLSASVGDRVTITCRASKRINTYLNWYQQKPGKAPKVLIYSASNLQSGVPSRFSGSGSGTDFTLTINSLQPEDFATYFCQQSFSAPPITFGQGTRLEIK", 0),
    ("mAb22805 (antibody, human IgG4, V domains shown) VH: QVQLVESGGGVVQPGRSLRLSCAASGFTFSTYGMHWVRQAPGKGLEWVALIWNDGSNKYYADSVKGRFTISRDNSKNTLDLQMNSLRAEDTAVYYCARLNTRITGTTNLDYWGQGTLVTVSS VL: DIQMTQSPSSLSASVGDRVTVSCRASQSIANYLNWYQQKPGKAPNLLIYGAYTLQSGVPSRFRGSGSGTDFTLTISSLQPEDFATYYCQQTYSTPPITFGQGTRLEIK", 0),
]

stdin: So what's the measured 100 nM Ag Bound (RU) for this one? mAb22035 (antibody, human IgG4, V domains shown) VH: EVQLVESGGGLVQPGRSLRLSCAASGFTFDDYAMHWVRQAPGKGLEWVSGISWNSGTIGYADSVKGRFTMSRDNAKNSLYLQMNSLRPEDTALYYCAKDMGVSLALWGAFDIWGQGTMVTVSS VL: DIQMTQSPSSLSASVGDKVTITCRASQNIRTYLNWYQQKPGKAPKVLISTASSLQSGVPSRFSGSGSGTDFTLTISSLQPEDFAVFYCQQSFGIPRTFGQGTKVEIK
stdout: 0
